Cited source for all entries: ChEMBL document CHEMBL1772986

Test Name: Cmax in Sprague-Dawley rat at 20 mg/kg, po
Format: ADME, organism-based
Design: dose 20 mg/kg, route oral
Condition Info: in vivo
Assay Readout: Cmax (ng/mL)

A = COc1ccc2c(C(=O)c3cc(OC)c(OC)c(OC)c3)c[nH]c2c1
B = COc1cc(C(=O)c2c[nH]c3nc(C)ccc23)cc(OC)c1OC
Ask: // returns A or B , whichever has the lower Cmax Provide the label of your selected option as the answer.
Result: A

* * *

Test Name: Aqueous solubility in distilled water at 2 mg after 24 hrs
Type: physicochemical
Assay Readout: solubility at 24 h (µg/mL)

I = COc1cc(C(=O)c2c[nH]c3nc(C)ccc23)cc(OC)c1OC
II = COc1cc(C(=O)c2c[nH]c3nc(C)ccc23)cc(OC)c1OC.Cl
III = COc1ccc2c(C(=O)c3cc(OC)c(OC)c(OC)c3)c[nH]c2c1
Ask: # order the compounds above by solubility at 24 h, highest value first Return value: ordered labels per request.
Result: II, I, III

* * *

Test Name: Solubility of the compound in phosphate buffer at 2 mg at pH 7.4 after 24 hrs
Type: physicochemical
Assay Readout: solubility at 24 h (µg/mL)

a = COc1cc(C(=O)c2c[nH]c3nc(C)ccc23)cc(OC)c1OC.Cl
b = COc1ccc2c(C(=O)c3cc(OC)c(OC)c(OC)c3)c[nH]c2c1
c = COc1cc(C(=O)c2c[nH]c3nc(C)ccc23)cc(OC)c1OC
Ask: List the 3 entries from lowest solubility at 24 h to highest solubility at 24 h value. Dear reader, please state the labels in the requested order.
Result: b, c, a
(b: 0.61 µg/mL, c: 8.3 µg/mL, a: 79.6 µg/mL)

* * *

Test Name: Tmax in Sprague-Dawley rat at 20 mg/kg, po
Format: ADME, organism-based
Parameters: dose 20 mg/kg, route oral
Condition Info: in vivo
Assay Readout: Tmax (h)

1 = COc1ccc2c(C(=O)c3cc(OC)c(OC)c(OC)c3)c[nH]c2c1
2 = COc1cc(C(=O)c2c[nH]c3nc(C)ccc23)cc(OC)c1OC
Ask: // max by Tmax over [ 1 , 2 ] Write down the label attached to your selection.
Result: 1

* * *

Tested on: MKN-45
Test Name: Cytotoxicity against human MKN45 cells after 72 hrs by methylene blue dye assay
Assay type: functional, cell-based
Condition Info: MKN-45, 72 h
Assay Readout: IC50 (nM)
# value in nM; strip the unit string

- Smiles Text: "COc1ccc2c(C(=O)c3cc(OC)c(OC)c(OC)c3)ccn2c1"
  System Tested: "MKN-45"
  Recorded Result: 80
- Smiles Text: "COc1ccn2c(C(=O)c3cc(OC)c(OC)c(OC)c3)cnc2c1"
  System Tested: "MKN-45"
  Recorded Result: 730
- Smiles Text: "COc1ccc2c(C(=O)c3cc(OC)c(OC)c(OC)c3)c[nH]c2c1"
  System Tested: "MKN-45"
  Recorded Result: 5
- Smiles Text: "COc1ccc2c(C(=O)c3cc(OC)c(OC)c(OC)c3)c[nH]c2n1"
  System Tested: "MKN-45"
  Recorded Result: 16

Ask: Param item = "COc1ncc2c(C(=O)c3cc(OC)c(OC)c(OC)c3)c[nH]c2n1" ; retrieve measured IC50.
Result: 80

Ask: // query IC50 value for entry "CCOc1ccc2c(C(=O)c3cc(OC)c(OC)c(OC)c3)c[nH]c2n1"
Result: 14

Ask: GET /values?readout=IC50&item= "COc1ccc2c(C(=O)c3cc(OC)c(OC)c(OC)c3)c(C)cn2c1"
Result: 26

Ask: Look at this molecule and give its reported IC50. "COc1ccc2c(C(=O)c3cc(OC)c(OC)c(OC)c3)n[nH]c2c1"
Result: 95

Ask: Give the measured IC50 of "COc1ccn2c(C(=O)c3cc(OC)c(OC)c(OC)c3)c(C)cc2c1" .
Result: 354

* * *

System: KB
Test Name: Cytotoxicity against human KB cells after 72 hrs by methylene blue dye assay
Type: functional, cell-based
Assay Readout: pIC50
Please report pIC50 as the negative decimal logarithm of the molar concentration, giving only the number.

- Smiles Text: "CCOc1ccc2c(C(=O)c3cc(OC)c(OC)c(OC)c3)c[nH]c2n1"
  Recorded Result: 7.92
- Smiles Text: "COc1ccc2c(C(=O)c3cc(OC)c(OC)c(OC)c3)c[nH]c2n1"
  Recorded Result: 7.70
- Smiles Text: "COc1ccc2c(C(=O)c3cc(OC)c(OC)c(OC)c3)c(C)cn2c1"
  Recorded Result: 7.51
- Smiles Text: "COc1ncc2c(C(=O)c3cc(OC)c(OC)c(OC)c3)c[nH]c2n1"
  Recorded Result: 6.55
- Smiles Text: "COc1ccc2c(C(=O)c3cc(OC)c(OC)c(OC)c3)c[nH]c2c1"
  Recorded Result: 8.22

Ask: Give pIC50 (KB) of the following compound: "COc1ccn2c(C(=O)c3cc(OC)c(OC)c(OC)c3)cnc2c1"
Result: 6.11

Ask: Which pIC50 is reported with KB for this entry: "COc1ccc2c(C(=O)c3cc(OC)c(OC)c(OC)c3)n[nH]c2c1" ?
Result: 7.15

Ask: API: value(readout= pIC50, system= KB, query= "COc1ccc2c(C(=O)c3cc(OC)c(OC)c(OC)c3)ccn2c1" )
Result: 6.55

* * *

Test Name: Half life in Sprague-Dawley rat plasma at 20 mg/kg, po
Type: ADME, organism-based
Set-up: dose 20 mg/kg, route oral
Assay Readout: half-life (min)

a = COc1cc(C(=O)c2c[nH]c3nc(C)ccc23)cc(OC)c1OC
b = COc1ccc2c(C(=O)c3cc(OC)c(OC)c(OC)c3)c[nH]c2c1
Ask: Kindly identify which of a and b has the larger recorded half-life value. Your choice should be expressed through its label.
Result: b

* * *

Test Name: AUC in Sprague-Dawley rat at 20 mg/kg, po
Type: ADME, organism-based
Set-up: dose 20 mg/kg, route oral
Condition Info: plasma
Assay Readout: AUC (ng·h/mL)

1 = COc1ccc2c(C(=O)c3cc(OC)c(OC)c(OC)c3)c[nH]c2c1
2 = COc1cc(C(=O)c2c[nH]c3nc(C)ccc23)cc(OC)c1OC
Ask: Form field 'greater AUC' accepts 1 or 2 ; which applies? I would appreciate it if you answered with the label of your choice.
Result: 2

* * *

Test Name: Metabolic stability in human liver microsomes assessed as compound remaining at 1 uM after 30 mins
Assay type: ADME, Microsome
Condition Info: read-out: Stability
Assay Readout: remaining at 0.5 h, 1 µM (%)

Record excerpt, results attached:
- Smiles Text: "CCOc1ccc2c(C(=O)c3cc(OC)c(OC)c(OC)c3)c[nH]c2n1"
  Unit String: "%"
  remaining at 0.5 h, 1 µM: 96.4
- Smiles Text: "COc1ccc2c(C(=O)c3cc(OC)c(OC)c(OC)c3)c[nH]c2n1"
  Unit String: "%"
  remaining at 0.5 h, 1 µM: 88.3

I = COc1ccc2c(C(=O)c3cc(OC)c(OC)c(OC)c3)cnn2n1
II = COc1ccc2c(C(=O)c3cc(OC)c(OC)c(OC)c3)c(C)cn2c1
III = COc1ccc2c(C(=O)c3cc(OC)c(OC)c(OC)c3)c[nH]c2c1
Ask: // sort entries: remaining at 0.5 h, 1 µM, high to low Answer with the labels in sequence, matching the requested order.
Result: I, III, II
